Data provenance is patent US20150239831A1.

# measured_target: VIPR2 (Homo sapiens)
# run_description: Inhibition of VIP-induced cAMP elevation (% Activity cAMP)
# Assay type: cell-based
# Set-up: expressed in transfected cells; host or cells: HEK293 cells transfected with VIPR2 in pCDNA3.1 (as described)
# test_parameters: 5 μM, Batch 3
measurement_kind: inhibition at 5 µM (%)
Field format: number, assumed %, no unit text.

# example entries with known answers
O=C(NC1CCCC1)c1ccc(S(=O)(=O)NC[C@@H](O)C[C@@H](Cc2ccccc2)C(=O)N[C@H]2c3ccccc3C[C@H]2O)cc1 :: 31.8
CC(C)CNc1ccc(S(=O)(=O)NC[C@@H](O)C[C@@H](Cc2ccccc2)C(=O)N[C@H]2c3ccccc3C[C@H]2O)cc1 :: 27.4

Field: next compound
// query Name the reported inhibition at 5 µM value associated with the compound CC(=O)Nc1ccc(S(=O)(=O)NC[C@H](C[C@@H](Cc2ccccc2)C(=O)N[C@H]2c3ccccc3C[C@H]2OC(C)=O)OC(C)=O)cc1
// result -5.8

---

# measured_target: VIPR2 (Homo sapiens)
# run_description: Inhibition of VIP-induced β-arrestin recruitment (% Activity Arrestin)
# Format: cell-based
# Design: expressed in transfected cells; host or cells: HEK293 cells transfected with VIPR2 in pCDNA3.1 (as described)
# test_parameters: 0.5 μM, Batch 1
measurement_kind: inhibition at 0.5 µM (%)
Dear colleague, please return just the value in %, with no unit written.

Examples with answers:
COc1ccc(S(=O)(=O)NC[C@@H](O)C[C@@H](Cc2ccccc2)C(=O)N[C@H]2c3ccccc3C[C@H]2O)cc1OC [S] :: 10.5
O=C(NC[C@@H](O)C[C@@H](Cc1ccccc1)C(=O)N[C@H]1c2ccccc2C[C@H]1O)c1ccccc1[N+](=O)[O-] [G] :: 36.4
COc1cc(C(=O)NC[C@@H](O)C[C@@H](Cc2ccccc2)C(=O)N[C@H]2c3ccccc3C[C@H]2O)cc(OC)c1OC [H] :: 29.6

// query Which measured inhibition at 0.5 µM value corresponds to COc1ccc(S(=O)(=O)NC[C@@H](O)C[C@@H](Cc2ccccc2)C(=O)N[C@H]2c3ccccc3C[C@H]2O)cc1 [E] ?
// result 54.1

---

# measured_target: VIPR2 (Homo sapiens)
# run_description: Inhibition of VIP-induced β-arrestin recruitment (% Activity Arrestin)
# Format: cell-based
# Design: expressed in transfected cells; host or cells: HEK293 cells transfected with VIPR2 in pCDNA3.1 (as described)
# test_parameters: 5 μM, Batch 1
measurement_kind: inhibition at 5 µM (%)
Your answer is read as %, so omit the unit and give the number.

// query Recorded inhibition at 5 µM of CS(=O)(=O)NC[C@@H](O)C[C@@H](Cc1ccccc1)C(=O)N[C@H]1c2ccccc2C[C@H]1O [Compound A5] , please.
// result 23.4

// query Quick one: inhibition at 5 µM for O=C(CCCCBr)NC[C@@H](O)C[C@@H](Cc1ccccc1)C(=O)N[C@H]1c2ccccc2C[C@H]1O [Compound A15] ?
// result -10.6

// query Requested field: inhibition at 5 µM. Item: O=C(NC[C@@H](O)C[C@@H](Cc1ccccc1)C(=O)N[C@H]1c2ccccc2C[C@H]1O)C1CCCCCC1 [Compound A8]
// result 10.5

---

# measured_target: VIPR2 (Homo sapiens, UniProt P41587)
# Sequence (P41587 24-438): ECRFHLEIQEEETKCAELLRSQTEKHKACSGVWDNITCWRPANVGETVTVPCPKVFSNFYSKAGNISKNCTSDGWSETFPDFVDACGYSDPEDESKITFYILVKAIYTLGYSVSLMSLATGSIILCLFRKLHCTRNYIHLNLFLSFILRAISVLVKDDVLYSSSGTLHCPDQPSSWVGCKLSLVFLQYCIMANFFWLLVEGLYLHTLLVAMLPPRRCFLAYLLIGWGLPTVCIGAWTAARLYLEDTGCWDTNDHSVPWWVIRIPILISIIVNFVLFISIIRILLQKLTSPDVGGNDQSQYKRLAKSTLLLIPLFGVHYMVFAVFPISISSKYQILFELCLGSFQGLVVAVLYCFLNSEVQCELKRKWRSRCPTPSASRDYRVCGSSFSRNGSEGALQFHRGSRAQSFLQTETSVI
# run_description: % Activity: inhibition of VIP-induced cAMP elevation and β-arrestin recruitment (Table 2)
# Assay type: cell-based
# Set-up: expressed in transfected cells; host or cells: HEK293 cells transfected with VIPR2 in pCDNA3.1 (as described)
Record yes whenever % Activity is at 20% or higher; record no when lower.

Recorded results for 6 compounds are shown here.
CC(C)C(=O)Nc1ccc(S(=O)(=O)NC[C@@H](O)C[C@@H](Cc2ccccc2)C(=O)N[C@H]2c3ccccc3C[C@H]2O)cc1 :: no
O=C(O)c1ccc(S(=O)(=O)NC[C@@H](O)C[C@@H](Cc2ccccc2)C(=O)N[C@H]2c3ccccc3C[C@H]2O)cc1 :: no
C[C@H](CC(C)(C)C)NC(=O)[C@H](Cc1ccccc1)C[C@H](O)CNS(=O)(=O)c1ccc([N+](=O)[O-])cc1 [Compound B10A] :: no
CCCCNC(=O)[C@@H](Cc1ccccc1)C[C@H](O)CNS(=O)(=O)c1ccc([N+](=O)[O-])cc1 :: no
O=C([C@@H](Cc1ccccc1)C[C@H](O)CNS(=O)(=O)c1ccc([N+](=O)[O-])cc1)N1CCCCC1 [Compound B18B] :: no
O=C(NCc1ccc(F)cc1F)[C@H](Cc1ccccc1)C[C@H](O)CNS(=O)(=O)c1ccc([N+](=O)[O-])cc1 [Compound B14A] :: yes

// query Confirm if % Activity reported for the compound O=C(NC[C@@H](O)C[C@@H](Cc1ccccc1)C(=O)N[C@H]1c2ccccc2C[C@H]1O)c1ccccc1[N+](=O)[O-] is 20% or above.
// result no

// query hey, is % Activity for this one >= 20%? Cc1ccc(S(=O)(=O)NC[C@@H](O)C[C@@H](Cc2ccccc2)C(=O)N[C@H]2c3ccccc3C[C@H]2O)c(C)c1
// result yes

// query I'd appreciate it if you could say whether O=C(N[C@H]1c2ccccc2C[C@H]1O)[C@H](Cc1ccccc1)C[C@H](O)CNS(=O)(=O)c1ccc([N+](=O)[O-])cc1 [Ref C1, reference compound] has % Activity at least equal to 20%.
// result yes

// query # bool: % Activity of COc1ccc(S(=O)(=O)NC[C@@H](O)C[C@@H](Cc2ccccc2)C(=O)N[C@H]2c3ccccc3C[C@H]2O)cc1 >= 20%
// result yes

// query Dear colleague, could you confirm whether O=C(NC1CCCCCC1)[C@H](Cc1ccccc1)C[C@H](O)CNS(=O)(=O)c1ccc([N+](=O)[O-])cc1 has % Activity at or above 20%?
// result no

// query Form field: % Activity at least 20%? Entry: CCNC(=O)[C@H](Cc1ccccc1)C[C@H](O)CNS(=O)(=O)c1ccc([N+](=O)[O-])cc1 [Compound B16A]
// result no
